Cited source for all entries: PubChem BioAssay (Tox21)

# Experiment Description: qHTS assay for identifying genotoxic compounds that show differential cytotoxicity against isogenic chicken DT40 cell lines with known DNA damage response pathways - Rev3 mutant cell line (AID 743014); further: nearly all actives have a fitted effect of over 55% in size
# Condition: chicken DT40 Rev3-/- viability, CellTiter-Glo, 40 h; series mostly up to 68.4 µM
Results filed as inconclusive are left out. Calls of active or inactive are those of the source. The call rests on the fitted dose curve; in most records, active means well fitted cell-killing curve with a large enough effect in the repeat runs; inconclusive means weak or mixed curves, or effect the other way; inactive means no such curve, though single readings can be large or run the other way.
Labels: active, inactive

Molecule | Label
C[N+](C)(C)CCCl | inactive
CCCCCCCCCCOC(=O)c1ccccc1C(=O)OCCCCCCCCCC | inactive
NC(=O)C(Cl)(Cl)Cl | inactive
CCC(Cl)CCl (stereo not given) | inactive
C=CCC1([C@H](C)CCC)C(=O)NC(=O)NC1=O | inactive
COP(=S)(OC)Oc1cc(Cl)c(I)cc1Cl | inactive
CC(c1ccc(O)cc1)(c1ccc(O)cc1)c1ccc(O)cc1 | active
COC1=CC(=O)O[C@@H](CCc2ccccc2)C1 | inactive
CCCC(Cn1cncn1)c1ccc(Cl)cc1Cl (stereo not given) | active
CCCCN=C=O | inactive
Cc1ccc2ccccc2c1 | inactive
C=CC(=O)OC | inactive
C/C(=C\c1ccccc1)[N+](=O)[O-] | active
CCCN(CC1CC1)c1c([N+](=O)[O-])cc(C(F)(F)F)cc1[N+](=O)[O-] | inactive
CC/C(=N\OC/C=C/Cl)C1=C(O)CC(C2CCOCC2)CC1=O (stereo not given) | inactive
CC(C)(C)c1cc([N+](=O)[O-])cc([N+](=O)[O-])c1O | active
CCOP(=S)(OCC)Oc1nc(Cl)c(Cl)cc1Cl | inactive
O=C1C(Cl)C(CCl)CN1c1cccc(C(F)(F)F)c1 (stereo not given) | inactive
NCC(CC(=O)O)c1ccc(Cl)cc1 (stereo not given) | inactive
O=C(O)C1(c2ccc3c(c2)OC[C@H](Cc2ccc(-c4ccccc4)cc2)[C@H]3O)CCCC1 | active
CCn1cc[n+](C)c1 | inactive
BrCC(Br)C1CCC(Br)C(Br)C1 (stereo not given) | inactive
CCCCC(O)(Cn1cncn1)c1ccc(Cl)cc1Cl (stereo not given) | active
Cn1cc[n+](C)c1 (tested in a mixture with another compound) | inactive
Clc1cc(C(Cl)(Cl)Cl)cnc1Cl | inactive
O=C(CBr)c1ccccc1 | active
CO/C=C(/C(=O)OC)c1ccccc1COc1cccc(C(F)(F)F)n1 | active
ClCCCCBr | inactive
C=CC(=O)OCC(C)O (stereo not given) | inactive
CCOC(=O)COc1cc(-c2nn(C)c(OC(F)F)c2Cl)c(F)cc1Cl | inactive
CCOC(=O)CBr | inactive
C=CC(C)=O | inactive
C=CC(=O)OC(C)(C)C | inactive
O=[N+]([O-])c1ccc(F)c([N+](=O)[O-])c1 | inactive
OCCCBr | inactive
NC(=O)CI | inactive
COc1cc(CC(C)N)cc2c1OCO2 (stereo not given) | inactive
CC(=O)NC1CCSC1=O (stereo not given) | inactive
Cc1c(F)c(F)c(COC(=O)C2C(/C=C(\Cl)C(F)(F)F)C2(C)C)c(F)c1F (stereo not given) | inactive
CC(C)N(C(=O)COc1nnc(C(F)(F)F)s1)c1ccc(F)cc1 | active
COC(=O)C(C)N(C(=O)Cc1ccccc1)c1c(C)cccc1C (stereo not given) | active
O=NN1CCNCC1 | inactive
O=S1(=O)OC(c2cc(Br)c(O)c(Br)c2)(c2cc(Br)c(O)c(Br)c2)c2ccccc21 | active
N#CCc1ccccc1 | inactive
O=C(O)C(F)(F)C(F)(F)C(F)(F)C(F)(F)C(F)(F)C(F)(F)C(F)(F)C(F)(F)C(F)(F)C(F)(F)F | inactive
O=Cc1ccc(Cl)cc1Cl | inactive
COP(=O)(OC)O/C(=C/Cl)c1cc(Cl)c(Cl)cc1Cl | active
C/C=C/C=O | inactive
O=C=Nc1ccc(Cl)cc1 | active
COc1nn(CSP(=S)(OC)OC)c(=O)s1 | active
CO/N=C(/C(=O)OC)c1ccccc1COc1ccccc1C | active
CN(N=O)c1ccc([N+](=O)[O-])cc1 | inactive
CCc1ccc(C(=O)NN(C(=O)c2cc(C)cc(C)c2)C(C)(C)C)cc1 | active
CCCCCCCCOC(=O)c1ccc(C(=O)OCCCCCCCC)c(C(=O)OCCCCCCCC)c1 | inactive
ClCC(Br)CBr (stereo not given) | inactive
